- System: MDA-MB-231 breast
- assay: NCI tumour cell line growth inhibition, 48 h
propertyMeasured: TGI (µM)

CCCC1=C(OC)C(=O)c2c(C)cc(Cl)nc2C1=O = 19.5
CCN(CC)CCCNCc1cc(-c2ccccc2)nc2cc(Cl)ccc12 = 4.24
CC(C)[C@H](C)/C=C/[C@@H](C)C1CC[C@H]2[C@@]34C=C[C@]5(C[C@@H](O)CC[C@]5(C)[C@H]3CC[C@]12C)OO4 (stereo partly specified) = 84.9

---

- Tested on: PC-3 prostate
- assay: NCI tumour cell line growth inhibition, 48 h; in the data active = GI50 below about 0.43 µM; inactive = the rest
Classes used: class 1 for active, class 0 for inactive

O=C(O)COc1ccc(OCC(=O)O)cc1 = class 0
FC(F)c1ncc(-c2ccc(C(F)(F)F)cc2)c(NC2CCCCCC2)n1 = class 0
CC1=C(CO)C(=O)O[C@@H]([C@@H](C)[C@H]2CC[C@H]3[C@@H]4C[C@H]5O[C@]56[C@@H](O)C=CC(=O)[C@]6(C)[C@H]4CC[C@]23C)C1 = class 0
COc1ccc2nc(C)cc(Sc3nc4ccccc4s3)c2c1 = class 1
CC(C)[P+](c1ccccc1)(c1ccccc1)c1ccccc1 = class 0

---

Measured TGI of individual entries
- Tested on: SK-OV-3 ovarian
- assay: NCI tumour cell line growth inhibition, 48 h
propertyMeasured: TGI

CCCCC#Cc1c(I)n(C2OC(CO[Si](C)(C)C(C)(C)C)C3OC(C)(C)OC32)c(=O)n(C(=O)c2ccccc2)c1=O (stereo not drawn) = 27.9 µM
CN1CCN(CCCOc2ccc3nc(Nc4ccc(F)c(F)c4)ccc3c2)CC1 = 6.9 µM
Oc1ccc(Cl)cc1-c1cc(-c2ccccc2)nc(=S)[nH]1 = > 100 µM
Nc1nc(Cl)nc2c1ncn2C1OC(CO)C(O)C1F (stereo not drawn) = > 100 µM
[N-]=[N+]=Nc1nc2ccccc2c(N=[N+]=[N-])c1Cl = > 100 µM
CC(C)[C@H](C)/C=C/[C@@H](C)C1CC[C@H]2[C@@]34C=C[C@]5(C[C@@H](O)CC[C@]5(C)[C@H]3CC[C@]12C)OO4 (stereo partly drawn) = > 100 µM
CC(OP(=O)(O)O)C(N)C(=O)O (stereo not drawn) = > 100 µM
CCOc1ccc2nc3nc(=O)[nH]c(C)c3c(NC(C)(CO)CO)c2c1 = > 100 µM

---

- System: SNB-75 CNS
- assay: NCI tumour cell line growth inhibition, 48 h
Where a SMILES comes first, the peptide text is derived from it. [ ]: non-standard residue; d: D form. The star is where a group is joined. Phe(4-NO2) = N[CH](Cc1ccc([N+](=O)[O-])cc1)C(=O)O; Boc = CC(C)(C)OC(=O)*
Listed next: entries and their corresponding log10 of TGI.
propertyMeasured: log10 of TGI (log10 of the value in µM)

Cc1nn(C)c2ncnc(N/N=C/c3cccc(O)c3O)c12 = 0.83
O=Nc1c(-c2c(O)[nH]c3ccc(I)cc23)[nH]c2ccccc12 = 1.32
CCOC(=O)CCC(NC(=O)C(Cc1ccc([N+](=O)[O-])cc1)NC(=O)OC(C)(C)C)C(=O)NC(CCC(=O)OCC)C(=O)OCC (centres undefined) (Boc-[Phe(4-NO2)]-Glu(OEt)-Glu(OEt)-OEt; configuration not given here) = 1.50
CCCC1=C(OC)C(=O)c2c(C)cc(Cl)nc2C1=O = 1.30
COc1cc(C)cc(C(=O)/C=C/c2ccccc2)c1O = 1.86

---

- Test system: SF-295 CNS
- assay: NCI tumour cell line growth inhibition, 48 h
Each entry below carries its recorded TGI.
propertyMeasured: TGI

CC(C)=Cc1cc(C)c2ccc(C)c3c2c1C(C)=C(O)C3=O = 94.9 µM
O=C(Nc1ccc(-n2cc(-c3ccncc3)c(-c3ccc(O)c(Cl)c3)n2)cc1)c1ccc(Cl)c(C(F)(F)F)c1 = 4.15 µM
CC(C)N(C(=O)C12C3C4C5(C(=O)O)C(C1C35I)C42C(=O)O)C(C)C (stereo not given) = > 100 µM
Fc1ccc2c(c1)C1=C(CCC2)C(c2ccc(Cl)cc2)NC(=S)N1 (stereo not given) = > 100 µM
Cc1ccc(N=C/C=C(\Nc2ccc(C)cc2)c2ccc3ccccc3c2)cc1 = 3.9 µM
CCOC(=O)CCc1cn2cc(Br)nc(OC)c2n1 = > 100 µM
C1CSC[C@H]2COC[C@@H](CSCCS1)S2 = > 100 µM
O=C(O)c1c2c(cc3c(=O)c4ccccc4[nH]c13)CCCC2 = > 100 µM
O=C1C=CC(=O)c2c(O)c(N3CCOCC3)c(Cl)c(O)c21 = 3.21 µM
COc1cccc(NC(=O)CC(=O)n2nc(-c3ccccc3)c(N=Nc3ccc(Cl)cc3)c2-c2ccccc2)c1 = > 88.8 µM

---

- Tested on: RPMI-8226 leukemia
- assay: NCI tumour cell line growth inhibition, 48 h
Overview of recorded TGI for various compounds
propertyMeasured: TGI

COc1ccc(CSC2=C(C#N)C(=O)NC3(CCCCC3)S2)cc1 = > 100 µM
O=c1[nH]nc(-c2ccccc2)c2[nH]c3c(c12)Cc1ccccc1-3 = > 28.4 µM
CCOC(=O)CCc1cn2cc(Br)nc(OC)c2n1 = > 100 µM
NC1CCCCC1NCCNC1CCCCC1N (stereo not given) = > 100 µM
Cc1nc(C)c(N2CCN(CN)CC2)c(=O)[nH]1 = > 100 µM
Oc1ccc(Cl)cc1-c1cc(-c2ccccc2)nc(=S)[nH]1 = > 100 µM
Cc1ccc2oc(=O)c3c(O)c4cccc(OC5OC(C)C6O[C@@H](c7ccccc7)OC6C5OC5OC(C)C(O)C(O)C5O)c4c4oc(=O)c1c2c34 (stereo not given in full) = 0.888 µM
Brc1cc(C2OCCCO2)ccc1OCc1ccccc1 = > 100 µM
CC(C)=Cc1cc(CCC/C(C)=C/Cc2c(O)cc(C)c(C(=O)O)c2O)co1 = > 100 µM
CN1CCC(c2c(O)cc(O)c3c(=O)cc(-c4ccccc4Cl)oc23)C(O)C1 (stereo not given) = 0.0285 µM

---

- Tested on: HS 578T breast
- assay: NCI tumour cell line growth inhibition, 48 h
propertyMeasured: GI50

Cc1ccc(S(=O)(=O)n2cc([C@@]3(O)C[C@H](CSC#N)OC3=O)c3ccccc32)cc1 = 8.7 µM
C=C(C(=O)OC)[C@@H]1CC2OC1C(=O)C(C)CCC/C(C)=C/CC[C@@]2(C)O (stereo partly specified) = 36.9 µM
O=C(Nc1ccc(-n2cc(-c3ccncc3)c(-c3ccc(O)c(Cl)c3)n2)cc1)c1ccc(Cl)c(C(F)(F)F)c1 = 0.702 µM
O=C1NC(=O)C(c2cccc(Cl)c2)=C1Nc1ccc(Cl)c(C(=O)O)c1 = > 25 µM
O=C1CS/C(=N/S(=O)(=O)c2ccc(N3N=C4c5ccccc5CC4C3c3cccs3)cc2)N1C(=O)c1ccccc1 (stereo unspecified) = 25.3 µM
Fc1ccc2c(c1)C1=C(CCC2)C(c2ccc(Cl)cc2)NC(=S)N1 (stereo unspecified) = 50.5 µM
CC(C)(C)c1ccc(C2CC(=O)C3=C(C2)Nc2ccccc2N(C(=O)c2ccccc2Cl)C3c2ccc(F)cc2)cc1 (stereo unspecified) = > 100 µM
O=C(O)Cn1c2c(c3c1-c1ccccc1C3=O)C(=O)CCC2 = > 100 µM
O=C1NC(=O)C(=Cc2cn(Cc3ccccc3)c3ccccc23)C(=O)N1 = 8.71 µM
Nc1c(C(=O)c2cccc(C(O)CO)c2)cnn1-c1ccc(F)cc1 (stereo unspecified) = > 25 µM
N#CC1=C(N)NC(N2CCOCC2)=NC12Nc1ccccc1O2 (stereo unspecified) = 23.6 µM

---

- Tested on: BT-549 breast
- assay: NCI tumour cell line growth inhibition, 48 h
propertyMeasured: TGI

Cc1nc(NS(=O)(=O)c2ccc(NCN3C(=O)c4ccccc4C3=O)cc2)oc1C = > 100 µM
CCc1ccc2oc(=O)ccc2c1 = > 100 µM
O=C1C=C(N2CCN(c3ncccn3)CC2)C(=O)c2c(O)ccc(O)c21 = > 100 µM
O=C1CCCCC/C1=C\c1cccc(F)c1 = > 100 µM
Cc1nc(C)c(N2CCN(CN)CC2)c(=O)[nH]1 = > 100 µM
O=C1Nc2cccc(Cl)c2/C1=C\c1c(-c2ccccc2)nc2n1CCS2 = 76.5 µM

---

The following compounds are shown together with reported TGI values.
- Tested on: CAKI-1 renal
- assay: NCI tumour cell line growth inhibition, 48 h
propertyMeasured: TGI (µM)

COc1cc2nc(N3CCC[C@H](NC4=CC(=O)c5ccccc5C4=O)C3)nc(N)c2cc1OC = 3.91
CC(C)C[C@H](NC(=O)Cn1cccc(CNC(=O)c2ccccc2)c1=O)B(O)O = 44.9

---

TGI reference
- Test system: OVCAR-8 ovarian
- assay: NCI tumour cell line growth inhibition, 48 h
propertyMeasured: TGI

O=c1c2ccccc2oc2ccccc12 (tested in a mixture with another compound) = > 100 µM
CC(C)=Cc1cc(C)c2ccc(C)c3c2c1C(C)=C(O)C3=O = > 100 µM
O=S(=O)(/N=S(/Nc1ccccc1)C(F)(F)Cl)c1ccccc1 (configuration not stated) = > 100 µM
O=c1[nH]n(CCc2ccccc2CCl)c2ccc([N+](=O)[O-])cc12 = > 100 µM
Cc1nn(C)c2ncnc(N/N=C/c3cccc(O)c3O)c12 = > 100 µM
Cc1ccc(N2C(=O)/C(=C/c3ccc(N(CCC#N)CCC#N)cc3)N=C2COc2ccc(Cl)cc2Cl)cc1 = > 100 µM
Cc1nc(C)c(N2CCN(CN)CC2)c(=O)[nH]1 = > 100 µM
COc1ccc(CSC2=C(C#N)C(=O)NC3(CCCCC3)S2)cc1 = > 100 µM
CC(C)[C@H](C)/C=C/[C@@H](C)C1CC[C@H]2[C@@]34C=C[C@]5(C[C@@H](O)CC[C@]5(C)[C@H]3CC[C@]12C)OO4 (some centres not stated) = 66.4 µM
Nc1nc(Cl)nc2c1ncn2C1OC(CO)C(O)C1F (configuration not stated) = > 100 µM
Cc1cc2c(c(C(=O)NCC(=O)O)c1)Oc1c(cc(C)cc1C(=O)NCC(=O)O)S2 = > 100 µM
O=C1Nc2cccc(Cl)c2/C1=C\c1c(-c2ccccc2)nc2n1CCS2 = 83.6 µM
O=c1c2ccccc2nc(N/N=C/c2ccc([N+](=O)[O-])cc2)n1-c1ccccc1 = > 100 µM
CC1CCCC(C#N)(NOC2=NCCN2)C1 (configuration not stated) = > 100 µM
OCCCCC#Cc1ccccc1C#Cc1cccnc1 = > 100 µM
COc1ccc(Nc2ncnc3ccc(-c4cncc(NS(C)(=O)=O)c4)cc23)cc1Cl = 16.5 µM
O=C1C=C(N2CCN(c3ncccn3)CC2)C(=O)c2c(O)ccc(O)c21 = > 100 µM
NC1CCCCC1NCCNC1CCCCC1N (configuration not stated) = > 100 µM
O=C(O)COc1ccc(OCC(=O)O)cc1 = 10.8 µM
O=C1C=CC(=O)c2c(O)c(N3CCOCC3)c(Cl)c(O)c21 = 1 µM
Cc1ccc(-n2nncc2[Si](C)(C)C)s1 = > 100 µM
COc1cc(Cc2c(C)cc(OC)c3[nH]c4ccccc4c23)cc2c1[nH]c1ccccc12 = 10.9 µM
